Hey, just so you know, these numbers are from PubChem BioAssay (NCI).

- MEASUREMENT DESCRIPTION: NCI Yeast Anticancer Drug Screen. Data for the mlh1 strain (AID 171);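 note: 0% = growth of vehicle-treated control cultures of the same strain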
- EXPERIMENTAL SETUP: S. cerevisiae mlh1 strain growth inhibition; at 33.0 µM; hits give high values
- Protocol: Growth inhibition of yeast strains with defined genetic alterations is measured as a screen for potential anti-cancer activity. Selected strains with alterations in DNA damage repair or cell cycle control were exposed to compounds and growth inhibition was measured relative to vehicle treated controls. The strain used in this assay is mlh1
Compounds without any hit were thinned out: in the full panel of roughly 79,000, 15% have a hit. Active and inactive are the calls of the source. Cut-off read from the data, not from the text of the source: active = growth inhibition above about 70%; inactive = the rest.
TEST READOUT: growth inhibition

{"columns": ["COMPOUND", "TEST READOUT", "RESULT"],
 "data": [
  ["CCCCCCC1OCC(O)C(OCCCC)O1 (configuration not stated)", "growth inhibition", "1% (inactive)"],
  ["CCCCCCCCCCCCCCCCCCNC(=S)/N=C/c1c(O)c2ccccc2[nH]c1=O", "growth inhibition", "-4% (inactive)"],
  ["O=[N+]([O-])c1cc(Cl)ccc1S(=O)(=O)c1ccc(Cl)cc1[N+](=O)[O-]", "growth inhibition", "85% (active)"],
  ["CNC(=S)N/N=C(/C)CCC/C(C)=N/NC(=S)NC", "growth inhibition", "37% (inactive)"],
  ["Cc1cccc2c(NCCCN(C)C)c3c([N+](=O)[O-])ccc(C)c3nc12", "growth inhibition", "97% (active)"],
  ["Clc1nc(Cl)nc(Nc2cccc3ccccc23)n1", "growth inhibition", "97% (active)"],
  ["COC(=O)C(=O)c1c(-c2ccc(Cl)c(Cl)c2)[nH]c2[nH]n(-c3ccccc3)c(=O)c2c1=O", "growth inhibition", "57% (inactive)"]
]}

###

- MEASUREMENT DESCRIPTION: NCI Yeast Anticancer Drug Screen. Data for the CLN2oe strain (AID 163);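 note: 0% = growth of vehicle-only control cultures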
- EXPERIMENTAL SETUP: S. cerevisiae CLN2oe strain, at 100.0 µM
The panel holds about 79,000 compounds, 15% with a hit somewhere; the sample as a whole holds those more often. The source made the active and inactive calls. No stated cut-off is given here; in the data, active means growth inhibition above about 70%; inactive means the rest.
Possible outcomes: 1 (active), -1 (inactive)

{"columns": ["MOLECULE", "CLASSIFICATION"],
 "data": [
  ["CC1(C)CC(=O)C(/C=N/c2nc(-c3ccc(Br)cc3)cs2)=C(O)C1", 1],
  ["Nc1ccc(S(=O)(=O)Nc2nc3c(c(=O)[nH]2)CCCC3)cc1", 1],
  ["N#CC1OB(O)c2ccccc21 (centres undefined)", -1],
  ["COc1ccc(C(C)c2cc3c(cc2OCC(C)=O)OCO3)cc1 (centres undefined)", 1],
  ["CCC(/C=C/c1ccccc1)=N\\Nc1ccc(Cl)cc1", -1],
  ["c1ccc2nc3c(nc2c1)sc1ccccc13", -1],
  ["CC(C)OC(=O)NNc1c(Cl)cc(Cl)cc1Cl", -1],
  ["O=C(NCCCCN(CCCNC(=O)C(F)(F)F)Cc1ccccc1)C(F)(F)F", -1],
  ["CC(C)C(c1ccccc1)c1ccccc1", -1],
  ["CC1=NN(C(=O)CC(=O)NC(=O)/C=C\\c2ccccc2)C(=O)C1N=Nc1ccc([N+](=O)[O-])cc1 (centres undefined)", -1],
  ["O=C(NCCNCCNC(=O)c1cc(-c2ccccc2)nc2ccccc12)c1cc(-c2ccccc2)nc2ccccc12", -1],
  ["NC(=S)N/N=C1\\c2ccccc2CCC1CCC1(O)CCc2ccccc2C1=O (centres undefined)", 1],
  ["Cc1ccc(NC(=O)CCC(=O)C(C)C(=O)c2ccccc2)c(C)c1 (centres undefined)", -1],
  ["CNC(=S)N/N=C(/C)CCC/C(C)=N/NC(=S)NC", 1],
  ["Fc1ccc(Nc2ccc3ccccc3c2)cc1", -1],
  ["N#Cc1nc(Nc2ccc(Cl)cc2)sc1N", -1],
  ["Nc1cccc(-c2cc[cH-]c2)c1.[Fe+2].c1cc[cH-]c1", -1],
  ["CCOP(=O)(OCC)/C(C#N)=C/c1cccc(Oc2ccccc2)c1", 1],
  ["CC(C)CCC[C@@H](C)[C@H]1CC[C@H]2[C@@H]3CC[C@H]4C[C@H](N)CC[C@]4(C)[C@H]3CC[C@]12C", -1],
  ["C[N+](C)([O-])CCCNc1c2ccccc2nc2cccc([N+](=O)[O-])c12", 1],
  ["COc1cc2c(cc1OC)[C@@H](Nc1ccc(C#N)cc1)C1COC(=O)[C@@H]1C2c1cc(OC)c(O)c(OC)c1 (some centres undefined)", 1],
  ["Nc1cc2ccccc2cc1N", -1],
  ["O=C1C(=C2CCCC2)CCC1CN1CCCCC1 (centres undefined)", 1],
  ["O=C1CCC(Cc2ccccc2)CN1 (centres undefined)", -1]
]}
